Hello, the source for this data is paper PMC12040169, in case you need it.

- test: in vitro
- assay.context: human, hela cells, % viability
viability at 28.5 h, 10 µM for assorted compounds
Just the number in %, nothing appended.

Some solved entries appear below for comparison.
CC(c1ccc(F)c(F)c1)N(C)C(=O)Cn1[nH]c(=O)ccc1=O (stereo not drawn) [CBK305810] ... 81.2
COc1ccc(C(=O)N2CCC3(CCCN(C(=O)c4ccc5[nH]c(=O)[nH]c5c4)C3)C2)cc1OC (stereo not drawn) [CBK137086] ... 98.5
Cc1cc2cccc(NC(=O)NCc3cncn3CC(C)C)c2o1 [CBK306715] ... 101
CC(=O)c1ccc(N2CCN(C(=O)c3cc(-c4ccncc4)nc4ccc(Cl)cc34)CC2)cc1 [CBK267781] ... 91.8
Cc1cc(NC(=O)CN2CCC(CNc3ccccn3)C2)on1 (stereo not drawn) [CBK305760] ... 89.2
COc1ccc(-c2cc(C(=O)OCC(=O)c3cccc4ccccc34)c3ccccc3n2)cc1 [CBK265513] ... 96.7
Fc1cccc(C2NC(S)=NC3=C2N2CCC3CC2)c1 (stereo not drawn) [CBK288503] ... 88.2
CC(=O)N(Cc1cccnc1)c1nc2cc3c(cc2s1)OCCO3 [CBK287696] ... 99.9
CSC1=Nc2cc(Cl)ccc2SCC1 [CBK019829] ... 98.1
O=C(NCCn1nc(-c2ccco2)ccc1=O)c1ccccc1F [CBK283742] ... 92.5

Input line: Requested read-out: viability at 28.5 h, 10 µM. Entry: COc1cc(C2C3=C(CC(C)(C)CC3=O)Nc3ncnn32)ccc1OCC(=O)N1CCOCC1 (stereo not drawn) [CBK268551]
Output line: 102

Input line: What about this compound? COc1ccc(C)cc1CN(C)C(=O)c1cccc(NC(=O)C2CC2)c1 [CBK305414]
Output line: 98.5

Input line: What about this compound? CCNC(=O)Nc1cc2ccccc2c(-c2ccc(F)cc2OC)n1 [CBK085731]
Output line: 62.9

Input line: What about this compound? C(=N\N=C\c1ccccn1)/c1ccccn1 [CBK015627]
Output line: 89

Input line: What about this compound? Nc1cc2cccnc2nc1-c1ccc(OC(F)(F)F)cc1 [CBK067616]
Output line: 93.8

Input line: What about this compound? COc1ccc2[nH]c(-c3cncn3CCCC(C)(C)CO)cc2c1 [CBK281778]
Output line: 90.9

Input line: What about this compound? Cc1[nH]c2ccc(CNC(=O)NC3CCCc4cn[nH]c43)cc2c1C (stereo not drawn) [CBK305488]
Output line: 89.8

Input line: What about this compound? Cc1cc(NC(=O)c2nn(-c3ncccn3)c3ccccc23)n(C)n1 [CBK048505]
Output line: 92.3

Input line: What about this compound? Cc1ccc(NC(=O)N(Cc2ccccc2Br)CC(C)(C)CN)cc1[N+](=O)[O-] [CBK002436C]
Output line: 111

Input line: What about this compound? COc1ccc(N(CC(=O)Nc2ccc3c(c2)oc2ccccc23)S(=O)(=O)c2ccccc2)cc1 [CBK264814]
Output line: 104

Input line: What about this compound? CCOC(=O)N1CCC(NC(=O)c2ccc3nc4ccccc4c(=O)n3c2)CC1 [CBK294447]
Output line: 81.1

Input line: What about this compound? Cc1ccc(SC(C)C(=O)Nn2cnnc2)cc1 (stereo not drawn) [CBK268570]
Output line: 93.3

Input line: What about this compound? Nc1nc2cccnc2cc1-c1cccc(C(F)(F)F)c1 [CBK081200]
Output line: 103

Input line: What about this compound? Nc1nccnc1C(=O)N1CCN(C(=O)Cc2c[nH]c3ccccc23)CC1 [CBK298339]
Output line: 88.1

----------
- test: in vitro
- assay.context: human, hela cells, % viability
viability at 28.5 h, 10 µM for assorted molecules
Just the number in %, nothing appended.

CCN1CCN(c2ccc([N+](=O)[O-])cc2S(=O)(=O)N2CCOCC2)CC1 [CBK264410] ... 113
O=C(Cc1c(F)cccc1F)Nc1ccc2[nH]ccc2c1 [CBK144712] ... 120

Input line: Requested read-out: viability at 28.5 h, 10 µM. Entry: Cc1nn(C)c(C)c1CC(=O)N1CCc2c(sc3ncnc(N)c23)C1 [CBK306065]
Output line: 86.9

Input line: What about this molecule? CCN(CC)C(=O)c1sc2ncccc2c1NS(=O)(=O)c1cc(Cl)sc1Cl [CBK050615]
Output line: 92.2

Input line: What about this molecule? c1ccc2c(c1)n(CCN1CCOCC1)c1nc(C34CC5CC(CC(C5)C3)C4)cn21 [CBK278154C]
Output line: 105

Input line: What about this molecule? C=C(C)Cn1c(SCC(C)C)nnc1-c1ccccc1C(=O)NC(C)C [CBK200096]
Output line: 87.8

Input line: What about this molecule? O=C(Oc1ccc(N(C(=O)c2ccncc2)S(=O)(=O)c2cccc3cccnc23)c2ccccc12)c1ccncc1 [CBK266915]
Output line: 79.5

Input line: What about this molecule? c1ccc(-c2nc3cnccn3c2Nc2ccc3c(c2)OCCO3)cc1 [CBK287857]
Output line: 94.4

Input line: What about this molecule? Nc1ccc(NC(=O)c2ccc(NC(=O)c3cnc(-c4ccccc4)c(-c4ccncc4)c3)cc2)cc1 [CBK037463]
Output line: 101

----------
- test: in vitro
- assay.context: human, hela cells, % viability
property: viability at 28.5 h, 10 µM (%)
Just the number in %, nothing appended.

Input line: Requested read-out: viability at 28.5 h, 10 µM. Entry: O=C(Nc1ccncc1)c1c(O)n(Cc2ccccc2)c2ccccc2c1=O
Output line: 92

Input line: What about this molecule? CC(=O)NCCOc1nccnc1OCc1ccc(Cl)c(Cl)c1
Output line: 96.4

----------
viability at 28.5 h, 10 µM for assorted compounds
- test: in vitro
- assay.context: human, hela cells, % viability
Just the number in %, nothing appended.

Some solved entries appear below for comparison.
N/N=C(\CCC(=O)O)c1ccccc1 [CBK261306] ... 98.3
COc1ccc(C(NC(=O)[C@H]2CCCN2C(=O)c2c(-c3ccccc3)noc2C)c2ccccc2C)cn1 (stereo partly drawn) [CBK075055] ... 98.4
O=C(Cc1cccs1)N1CCC(c2nnc3n2CCCCC3)CC1 [CBK284606] ... 83.1
CN(C)c1ccc(-c2cnc3[nH]c(=O)n(C4CCCC4)c3n2)cc1 [CBK064964] ... 98
O=C1C(=CNCCC(c2ccccc2)c2ccccc2)C(=O)c2ccccc21 [CBK262987] ... 97
CCc1ccc(CNC(=O)Cn2cc(-c3ccc(CN4CCC(CO)CC4)cc3)nn2)cc1 [CBK167551] ... 105

Next:
Input line: Requested read-out: viability at 28.5 h, 10 µM. Entry: CN1CCCC(NC(=O)CCCOc2ccccc2F)C1 (stereo not drawn) [CBK282072]
Output line: 101

----------
- test: in vitro
- assay.context: human, hela cells, % viability
property: viability at 28.5 h, 10 µM
Please answer using a numeric value trailed by its unit.

Some solved entries appear below for comparison.
COc1ccccc1C(NC(=O)C1CCN(CCn2cnc3c2c(=O)n(C)c(=O)n3C)CC1)c1ccccn1 (stereo not drawn) ... 91.7%
N#Cc1ccccc1C(=O)N(CCO)Cc1ccccc1 ... 89.8%

Input line: Requested read-out: viability at 28.5 h, 10 µM. Entry: CCN1CCCC1CNC(=O)c1ccc(-c2ccco2)nc1N1CCN(C(=O)c2ccco2)CC1 (stereo not drawn)
Output line: 90.4%

----------
viability at 28.5 h, 10 µM for assorted molecules
- test: in vitro
- assay.context: human, hela cells, % viability
Just the number in %, nothing appended.

Some solved entries appear below for comparison.
COc1ccc(-n2cc(-c3ccccc3C(F)(F)F)nn2)cc1OC [CBK112965] ... 89.4
O=C(NNCc1ccccc1)c1cc(Br)cnc1N1CCN(C(=O)c2ccco2)CC1 [CBK076460] ... 101
COCC(=O)N1CCC(c2cc3nc(C(F)(F)F)ccc3[nH]2)CC1 [CBK282185] ... 110
CCOC(=O)c1[nH]c(=O)[nH]c1CSc1nc(C)cc(C)n1 [CBK019514] ... 109
COc1nccnc1N1CCN(CC(N)=O)CC1 [CBK084219] ... 98.4
CSCC(=O)N[C@H]1CCN2C(=O)N(c3cccc(C(C)=O)c3)C(=O)[C@@H]2C1 [CBK289546] ... 90.6

Input line: Requested read-out: viability at 28.5 h, 10 µM. Entry: Nc1ncc(-c2ccc(O)cc2)nc1N1CCN(CCO)CC1 [CBK063685]
Output line: 105

Input line: What about this molecule? CCC(CN1CCOCC1)n1cncc1-c1[nH]c2ccccc2c1C (stereo not shown) [CBK281800]
Output line: 106

Input line: What about this molecule? CC(C)C(NC(=O)C(C)(C)Oc1ccc(Cl)cc1)C(=O)O (stereo not shown) [CBK266138]
Output line: 94.5
